Item-by-item account of Anti-bacterial activity (MIC)
Test system: Enterococcus faecium (EFM)
Assay Explanation: MIC, two-fold agar dilution (CLSI), clinical isolates
Type: cell-based
Experimental Setup: strain EFM 15-6
Metric Name: Anti-bacterial activity (MIC) (µg/mL)

>>> quantitative_result("CCCC[C@H](CN(O)C=O)C(=O)N1CCC[C@H]1C(=O)Nc1ccc(F)c[n+]1[O-] [LBM415, reference compound]")
4
>>> quantitative_result("O=C(C[C@@H](CC1CCCC1)C(=O)N1CC2(CC2)C[C@H]1C(=O)Nc1nccs1)NO")
0.5
>>> quantitative_result("O=C(C[C@@H](CC1CCCC1)C(=O)N1CC2(CC2)C[C@H]1C(=O)Nc1ncco1)NO")
8
>>> quantitative_result("O=C(C[C@@H](CC1CCCC1)C(=O)N1CC2(CC2)C[C@H]1C(=O)Nc1ccno1)NO")
2
>>> quantitative_result("Cc1cc(NC(=O)[C@@H]2CC3(CC3)CN2C(=O)[C@@H](CC(=O)NO)CC2CCCC2)no1")
0.5
>>> quantitative_result("C[C@H]1COc2c(N3CCN(C)CC3)c(F)cc3c(=O)c(C(=O)O)cn1c23 [levofloxacin, reference compound]")
128
